Assay: chemical genetic growth profiling, strain panel (AID 1159580);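 also: tested at 20 µM; growth read once vehicle control cultures reached saturation at 30 °C; 1 = growth at the plate median or of vehicle wells; lower values mean less growth of the strain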
Conditions: S. cerevisiae deletion strains, growth OD, locus YOR106W, strain vam3, active compounds read low
Among all 5,500 compounds or so, about 2,000 (36%) were called active. Not shown: some 18% with an inconclusive outcome. The list shows a part of the results.

- compound: "CNCCC(Oc1ccc(C(F)(F)F)cc1)c1ccccc1 (centres undefined)"
  normalized growth: 0.986
- compound: "C/C=C(\\C)C(=O)O[C@H]1C[C@@H](OC(C)=O)[C@@]2(C(=O)OC)CO[C@@H]3C2[C@]12CO[C@](O)(C(=O)OC)[C@H]2[C@](C)(C12O[C@@]1(C)[C@H]1C[C@@H]2OC2OC=C[C@@]21O)[C@@H]3O (some centres undefined)"
  normalized growth: 0.938
- compound: "CCN(CC)Cc1ccc(Nc2ccnc3cc(Cl)ccc23)cc1O"
  normalized growth: 1.05
- compound: "Clc1ccc(C(c2ccc(Cl)cc2)C(Cl)(Cl)Cl)cc1"
  normalized growth: 0.988

* * *

Assay: chemical genetic growth profiling, strain panel (AID 1159580);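 also: tested at 20 µM; growth read once vehicle control cultures reached saturation at 30 °C; 1 = growth at the plate median or of vehicle wells; lower values mean less growth of the strain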
Details: S. cerevisiae deletion strains, growth OD, locus YOR001W, strain rrp6
Hit rate of the full screen: of about 5,500 compounds, about 2,000 (36%) were called active. About 18% were inconclusive and are not listed. Cut-off read from the data, not from the text of the source: active = normalized growth mostly below about 0.91 (no sharp cut-off); inconclusive = no clear call, values can overlap the other calls; inactive = mostly above about 0.92. This is one part of the list.
Labels: active, inactive

- compound: "C=C1CCC2[C@](C)(CO)[C@H](O)CC[C@@]2(C)[C@@H]1C/C=C1/C(=O)OC[C@H]1O (some centres undefined)"
  cat: "inactive"
- compound: "CCC(C)C(=O)O[C@@H]1C[C@@]2(C)[C@H](c3ccoc3)OC(=O)CC23OC2(C)O[C@]14[C@]1(C)[C@@H](CC(=O)OC)C5(C)CC1(O)[C@](O)(C5OC(=O)C1(C)OC1C)[C@@H](OC(C)=O)[C@]34O2 (some centres undefined)"
  cat: "inactive"
- compound: "C=C[C@@](C)(O)CCC1C(=C)CCC2[C@@](C)(CO)CCC[C@]12C (some centres undefined)"
  cat: "inactive"
- compound: "CO/N=C1/CN(c2nc3c(cc2F)c(=O)c(C(=O)O)cn3C2CC2)CC1CN (centres undefined)"
  cat: "inactive"
- compound: "COC(=O)C[C@H]1C2(C)CC34OC5(C)O[C@@]6([C@H](OC)C(OC(=O)C(C)C)[C@]7(C)C(/C(=C(/OC)C(C)C)C(=O)O[C@H]7c7ccoc7)[C@@]6(O5)[C@H](OC)[C@@]3(OC)C2OC(C)=O)[C@]14C (some centres undefined)"
  cat: "inactive"
- compound: "C#CCCCCCCCCCCCc1ccco1"
  cat: "inactive"
- compound: "CCC(C)C(=O)O[C@@H]1C[C@@]2(C)[C@H](c3ccoc3)OC(=O)CC23OC2(C)OC34[C@H](OC(=O)C(C)C)[C@@]3(O)[C@@H](OC(=O)C5(C)OC5C)[C@@]5(C)C[C@]3(O)[C@@](C)([C@H]5CC(=O)OC)C14O2 (some centres undefined)"
  cat: "inactive"
- compound: "CCN(CC)C(=O)N1CCN(C)CC1"
  cat: "inactive"
- compound: "OCCc1ccccc1"
  cat: "inactive"
- compound: "C=C[C@@](C)(O)CCC1C(=C)C[C@H](OC(C)=O)C2C(C)(C)CCCC12C (some centres undefined)"
  cat: "inactive"
- compound: "CC1COc2c(N3CCN(C)CC3)c(F)cc3c(=O)c(C(=O)O)cn1c23 (centres undefined)"
  cat: "inactive"
- compound: "CN(C)CCN(Cc1ccccc1)c1ccccn1"
  cat: "inactive"
- compound: "NS(=O)(=O)c1cc2c(cc1Cl)NC=NS2(=O)=O"
  cat: "inactive"
- compound: "CC(=O)Oc1cc(OC(C)=O)c2c(c1)O[C@H](c1ccc(OC(C)=O)c(OC(C)=O)c1)[C@@H](OC(C)=O)C2"
  cat: "inactive"
- compound: "CC1CCc2cc(F)cc3c(=O)c(C(=O)O)cn1c23 (centres undefined)"
  cat: "inactive"
- compound: "CC1(C)S[C@@H]2[C@H](NC(=O)[C@H](N)c3ccccc3)C(=O)N2[C@H]1C(=O)O"
  cat: "inactive"
- compound: "CCN(CC)Cc1ccc(Nc2ccnc3cc(Cl)ccc23)cc1O"
  cat: "inactive"
- compound: "CCn1cc(C(=O)O)c(=O)c2cc(F)c(N3CCNCC3)nc21"
  cat: "inactive"
- compound: "COc1ccc(C(=O)O)cc1OC"
  cat: "inactive"
- compound: "O=C(Oc1cc(OC(=O)c2ccccc2)c2c(c1)O[C@H](c1ccc(OC(=O)c3ccccc3)c(OC(=O)c3ccccc3)c1)[C@@H](OC(=O)c1ccccc1)C2)c1ccccc1"
  cat: "inactive"
- compound: "C=CCc1ccc(OC)cc1"
  cat: "inactive"
- compound: "O=C(O[C@@H]1Cc2c(O)cc(O)cc2O[C@@H]1c1cc(O)c(O)c(O)c1)c1cc(O)c(O)c(O)c1"
  cat: "active"
- compound: "CN(C)CCN(Cc1cccs1)c1ccccn1"
  cat: "inactive"
- compound: "O=C(O)CCCc1ccccc1"
  cat: "inactive"
- compound: "COC(=O)C[C@H]1C2(C)CC34OC5(C)O[C@@]6([C@H](OC(C)=O)C(OC(C)=O)[C@]7(C)C(/C(=C(/O)C(C)C)C(=O)O[C@H]7c7ccoc7)[C@@]6(O5)[C@H](OC(C)=O)[C@@]3(O)C2OC(=O)C(C)C)[C@]14C (some centres undefined)"
  cat: "inactive"
- compound: "Cc1ncc(CNC(=O)N(CCCl)N=O)c(N)n1"
  cat: "inactive"
- compound: "CCCCC/C=C/CCC(=O)N[C@H]1[C@H](Oc2c3cc4cc2Oc2ccc(cc2Cl)[C@@H](O[C@@H]2O[C@H](CO)[C@@H](O)[C@H](O)[C@H]2NC(C)=O)[C@@H]2NC(=O)[C@H](NC(=O)[C@@H]4NC(=O)[C@H]4NC(=O)C(Cc5ccc(c(Cl)c5)O3)NC(=O)[C@H](N)c3ccc(O)c(c3)Oc3cc(O)cc4c3)c3ccc(O)c(c3)-c3c(OC4O[C@H](CO)[C@@H](O)[C@H](O)[C@@H]4O)cc(O)cc3[C@@H](C(=O)O)NC2=O)O[C@H](CO)[C@@H](O)[C@@H]1O (some centres undefined)"
  cat: "inactive"
- compound: "CC(C)NCC(O)COc1cccc2[nH]ccc12 (centres undefined)"
  cat: "inactive"
- compound: "CC#CC1(O)CCC2C3CCC4=CC(=O)CCC4=C3C(c3ccc(N(C)C)cc3)CC21C (centres undefined)"
  cat: "inactive"
- compound: "COc1ccc2c(c1)OC/C(=C\\c1ccc(OC)c(O)c1)C2=O"
  cat: "active"
- compound: "COc1ccc2c(c1)OC/C(=C/c1ccc(OC)c(OC)c1)C2=O"
  cat: "inactive"
- compound: "O=C(O)CCCc1ccc(N(CCCl)CCCl)cc1"
  cat: "inactive"
- compound: "N[C@@H](Cc1ccc(N(CCCl)CCCl)cc1)C(=O)O"
  cat: "inactive"
- compound: "COc1ccc2c(c1)OC1(O)COc3cc(OC)c(OC)cc3C1=C2 (centres undefined)"
  cat: "inactive"
